biological target: OTU domain-containing protein 3 (Homo sapiens); assay: Validation of screening hits, potency titration, in vitro enzymatic, OTU domain-containing protein 3 DUB inhibitors (AID 1645868); settings: purified OTUD3, ubiquitin-rhodamine cleavage fluorescence, 2 h
Active and inactive are the calls of the source.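 How the source made its calls: active means maximal percent inhibition of the deubiquitinase OTUD3 of at least 30% across the tested doses; inactive means the rest.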
recorded-endpoint: IC50

Below are worked cases with known answers.
[
  {
    "compound": "COc1cccc(/C=C/C(=O)Nc2ccc(C)c(Cl)c2)c1",
    "IC50": "45.5 µM"
  },
  {
    "compound": "Cc1ccc(NC(=O)c2cnc(N3CCOCC3)nc2)cc1F",
    "IC50": "> 50 µM (inactive)"
  },
  {
    "compound": "CCn1c(CN2CCCC(c3nc(-c4cccnc4)n[nH]3)C2)nc2ccccc21 (stereo not given)",
    "IC50": "> 50 µM (inactive)"
  },
  {
    "compound": "COC1=C(C2=C(OC)C(=O)c3cc4c(c(O)c3C2=O)C(=O)OC(C)C4)C(=O)c2c(cc3c(c2O)C(=O)OC(C)C3)C1=O (stereo not given)",
    "IC50": "3.28 µM"
  },
  {
    "compound": "COc1cccc(CNC(=O)c2ccc3c(c2)NC(=O)C2CCCN32)c1OC (stereo not given)",
    "IC50": "> 50 µM (inactive)"
  },
  {
    "compound": "COc1ccc(CNC(=O)CCc2nnc3n(Cc4ccccc4Cl)c(=O)c4ccccc4n23)cc1",
    "IC50": "13.1 µM"
  },
  {
    "compound": "Cc1oc(-c2ccc(C(=O)NCC3COCCO3)cc2)nc1CN1CCc2ccccc21 (stereo not given)",
    "IC50": "> 50 µM (inactive)"
  },
  {
    "compound": "Cc1nn(-c2ccc(Cl)cc2)c2[nH]c(=O)c(CNCC3CCCO3)cc12 (stereo not given)",
    "IC50": "> 50 µM (inactive)"
  },
  {
    "compound": "COc1ccc(NC(=O)Nc2cccc(-c3nnc(-c4ccccc4)o3)c2)cc1OC",
    "IC50": "39.3 µM"
  },
  {
    "compound": "Cc1cccc(NC(=O)CN2C(=O)CC(c3ccccc3)S(=O)(=O)c3ccccc32)c1C (stereo not given)",
    "IC50": "22.1 µM"
  }
]

Return the recorded IC50 value; entry: Cc1cccc(NC(=O)Cn2c(=O)n(Cc3ccc(F)cc3)c(=O)c3sccc32)c1
17.5 µM

Return the recorded IC50 value; entry: C/C=C(\Cl)C1=CC(=O)[C@]23C[C@H]2[C@@]2(C)CO[C@@]1(O)[C@@]3(O)O2
> 50 µM (inactive)

Return the recorded IC50 value; entry: Cc1ccccc1C(=O)NCCn1cc(SCC(=O)Nc2ccc3c(c2)OCCO3)c2ccccc21
> 50 µM (inactive)

Return the recorded IC50 value; entry: COc1ccc(CCNC(=O)c2noc3c2CCc2sccc2-3)cc1OC
> 50 µM (inactive)

Return the recorded IC50 value; entry: CC(=O)c1ccc(NC(=O)CC2C(=O)Nc3nc4ccccc4n32)cc1 (stereo not given)
37.2 µM

Return the recorded IC50 value; entry: COc1cc(C(=O)NC(Cc2ccccc2)c2nc3ccccc3[nH]2)cc(OC)c1OC (stereo not given)
2.99 µM

Return the recorded IC50 value; entry: CN[C@H]1CC2(CCN(C(=O)CCCn3cccn3)CC2)OC[C@]1(C)O
> 50 µM (inactive)

Return the recorded IC50 value; entry: CCC(CC)n1[nH]c(=O)c2c1NC(=O)CSC2c1ccc2c(c1)OCO2 (stereo not given)
19.3 µM

Return the recorded IC50 value; entry: CC(C)(C)C(=O)NC(c1ccccc1)c1nnc(N2CCOCC2)o1 (stereo not given)
> 50 µM (inactive)

Return the recorded IC50 value; entry: CC(C)(C)C(=O)C1C2C(=O)N(c3ccc4c(c3)OCO4)C(=O)C2C2c3ccccc3C=CN12 (stereo not given)
> 50 µM (inactive)

---

target: OTU domain-containing protein 3 (Homo sapiens); experiment: Validation of screening hits, potency titration, in vitro enzymatic, OTU domain-containing protein 3 DUB inhibitors (AID 1645868); conditions: purified OTUD3, ubiquitin-rhodamine cleavage fluorescence, 2 h
Calls of active or inactive are those of the source.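 Rule for the calls: active = maximal percent inhibition of the deubiquitinase OTUD3 of at least 30% across the tested doses; inactive = the rest.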
The reply should be one of these categories: active, inactive

These solved cases illustrate the format of a correct answer.
[
  {
    "compound": "COc1ccccc1CNC(=O)c1c(O)c2cnn(-c3cccc(C)c3)c2[nH]c1=O",
    "assigned-class": "inactive"
  },
  {
    "compound": "COc1ccccc1CNC(=O)c1ccc(CSc2nc3ccncc3n2Cc2ccccc2)cc1",
    "assigned-class": "inactive"
  },
  {
    "compound": "Cc1cc(C(=O)N2CCN(C3CCN(Cc4ccc(Cl)o4)CC3)C(=O)C2)c(C)o1",
    "assigned-class": "inactive"
  }
]

Could you check what this test reported for O=C(c1ccnn1-c1ccc2ccc(-c3ccncc3)cn12)N1CCCC1 ?
inactive

Could you check what this test reported for Cn1ncc2c(=O)n(Cc3cccc(Cl)c3)cnc21 ?
inactive

Could you check what this test reported for COc1cccc(-n2nnc(C(=O)Nc3ccc(C)c(C)c3)c2C)c1 ?
inactive

Could you check what this test reported for Cc1ccc2c(c1)-c1c(c(C(=O)N3CCN(c4ccccc4)CC3)nn1C)CS2 ?
inactive

Could you check what this test reported for Cc1ccccc1NC(=O)CNc1nc(Nc2ccccc2)nc(Nc2ccccc2)n1 ?
active

Could you check what this test reported for COc1ccccc1-n1nnc(C(=O)Nc2ccc(Oc3ccccc3)cc2)c1C ?
inactive

---

biological target: OTU domain-containing protein 3 (Homo sapiens); test: Validation of screening hits, potency titration, in vitro enzymatic, OTU domain-containing protein 3 DUB inhibitors (AID 1645868); conditions: purified OTUD3, ubiquitin-rhodamine cleavage fluorescence, 2 h
The source made the active and inactive calls.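 Rule for the calls: active = maximal percent inhibition of the deubiquitinase OTUD3 of at least 30% across the tested doses; inactive = the rest.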
The reply should be one of these categories: active, inactive

These solved cases illustrate the format of a correct answer.
[
  {
    "molecular-string": "O=C(NCCc1ccccc1)c1nnn(Cc2cccc(Cl)c2)c1-n1cccc1",
    "assigned-class": "inactive"
  },
  {
    "molecular-string": "COc1ccc2c(C)c(CC(=O)N3CCC[C@H]3C(=O)O)c(=O)oc2c1C",
    "assigned-class": "inactive"
  },
  {
    "molecular-string": "COc1ccc(CCN2COc3c(cc(Cl)c4cccnc34)C2)cc1OC",
    "assigned-class": "active"
  }
]

Could you check what this test reported for O=C(NC1CCN(Cc2ccccc2)CC1)c1[nH]nc2c1CCc1ccccc1-2 ?
inactive

Could you check what this test reported for Cc1nc(C(=O)N[C@@H](C)C(=O)NCc2ccc3c(c2)OCO3)cc2c1[nH]c1ccccc12 ?
active

---

target: OTU domain-containing protein 3 (Homo sapiens); test: Validation of screening hits, potency titration, in vitro enzymatic, OTU domain-containing protein 3 DUB inhibitors (AID 1645868); conditions: purified OTUD3, ubiquitin-rhodamine cleavage fluorescence, 2 h
Activity calls are given as the source filed them.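 The calls were made as follows: active = maximal percent inhibition of the deubiquitinase OTUD3 of at least 30% across the tested doses; inactive = the rest.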
The reply should be one of these categories: active, inactive

[
  {
    "compound": "COc1ccccc1-c1nc(Cn2nnc(C(=O)Nc3cc(C)cc(C)c3)c2N)c(C)o1",
    "assigned-class": "inactive"
  },
  {
    "compound": "O=C1CC(C(=O)Nc2ccccc2Cl)n2nc(-c3ccccc3)cc2N1 (stereo not given)",
    "assigned-class": "active"
  },
  {
    "compound": "O=C(CSc1nc2cc(S(=O)(=O)Nc3ccccc3Cl)ccc2o1)Nc1ccc(N2CCOCC2)cc1",
    "assigned-class": "inactive"
  },
  {
    "compound": "N#Cc1ccc(Cn2nnc(-c3cccc(Cl)c3)n2)cc1",
    "assigned-class": "inactive"
  },
  {
    "compound": "COc1cc(COc2ccc3c(C)c(CC(=O)N4CC[C@@]5(O)CCCC[C@H]5C4)c(=O)oc3c2C)cc(OC)c1OC",
    "assigned-class": "inactive"
  },
  {
    "compound": "O=[N+]([O-])c1cccc(CSc2nnc(/C=C/c3ccccc3)o2)c1",
    "assigned-class": "inactive"
  },
  {
    "compound": "O=C(CN1C=NC2=NS(=O)(=O)c3ccccc3N21)Nc1cc(F)ccc1F",
    "assigned-class": "active"
  },
  {
    "compound": "Cc1nc2cc(C(=O)NCCC3=CCCCC3)ccc2n1-c1cccc(F)c1",
    "assigned-class": "inactive"
  }
]

Could you check what this test reported for CC(=O)c1ccccc1NC(=O)COc1ccc(-c2ccc(C#N)cc2)cc1 ?
inactive

Could you check what this test reported for Cc1ccccc1NC(=O)Cn1cc(-c2nc(C3CC3)no2)ccc1=O ?
inactive

---

molecular target: OTU domain-containing protein 3 (Homo sapiens) (UniProt Q5T2D3); experiment: Validation of screening hits, potency titration, in vitro enzymatic, OTU domain-containing protein 3 DUB inhibitors (AID 1645868); conditions: purified OTUD3, ubiquitin-rhodamine cleavage fluorescence, 2 h
Sequence (Q5T2D3 whole entry, looked up, the tested form may be a part): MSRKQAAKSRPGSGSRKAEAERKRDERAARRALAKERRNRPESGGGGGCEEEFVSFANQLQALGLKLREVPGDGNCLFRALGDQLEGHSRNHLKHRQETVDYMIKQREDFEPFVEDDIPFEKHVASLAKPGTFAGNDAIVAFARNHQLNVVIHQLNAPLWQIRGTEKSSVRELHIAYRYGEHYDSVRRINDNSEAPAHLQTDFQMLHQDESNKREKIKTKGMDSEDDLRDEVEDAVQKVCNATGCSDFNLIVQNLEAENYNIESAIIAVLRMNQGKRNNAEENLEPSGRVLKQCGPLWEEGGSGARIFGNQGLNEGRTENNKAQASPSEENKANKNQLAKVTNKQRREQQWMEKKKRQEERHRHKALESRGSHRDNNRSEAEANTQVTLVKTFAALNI
Active and inactive are the calls of the source.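 Rule for the calls: active = maximal percent inhibition of the deubiquitinase OTUD3 of at least 30% across the tested doses; inactive = the rest.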
recorded-endpoint: IC50

Return the recorded IC50 value; entry: Cc1ccc(-c2nc(Cn3nnc(-c4nc(-c5ccccn5)no4)c3C)c(C)o2)cc1
> 50 µM (inactive)

Return the recorded IC50 value; entry: O=C(NCCc1ccccn1)c1cn2ccnc(-c3ccc(F)cc3)c2n1
> 50 µM (inactive)

Return the recorded IC50 value; entry: CC(=O)c1ccc(NC(=O)C2CCN(c3cncnc3N3CCCC3)CC2)cc1
> 50 µM (inactive)

Return the recorded IC50 value; entry: CC(=O)Nc1ccc(Cc2nc(-c3ccc4c(c3)nc(C)c(=O)n4C3CCCC3)no2)cc1
> 50 µM (inactive)

Return the recorded IC50 value; entry: CC1=C(c2ccc(Cl)cc2)S(=O)(=O)NC1=NCC(=O)Nc1ccc(F)cc1
> 50 µM (inactive)

Return the recorded IC50 value; entry: O=C1c2ccccc2NC2(C(=O)Nc3ccc(Br)cc32)N1c1ccccc1 (stereo unspecified)
> 50 µM (inactive)

Return the recorded IC50 value; entry: Cc1cc(C)c2cc(C(=O)NC3CCN(Cc4ccccc4)CC3)[nH]c2c1
32.1 µM
